tested-system: estrogen receptor α (ER-α) (Homo sapiens, UniProt P03372)
Sequence (P03372 311-547 limits assumed): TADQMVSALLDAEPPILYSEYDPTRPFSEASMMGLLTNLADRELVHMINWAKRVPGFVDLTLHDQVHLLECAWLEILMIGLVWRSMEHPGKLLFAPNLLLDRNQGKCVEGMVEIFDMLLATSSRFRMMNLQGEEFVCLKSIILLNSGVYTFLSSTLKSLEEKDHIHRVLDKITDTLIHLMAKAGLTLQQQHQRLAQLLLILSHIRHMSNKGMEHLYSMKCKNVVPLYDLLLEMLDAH
attribute-measured: pIC50
Please express pIC50 as -log10 of the molar concentration.

Prompt: Query pIC50 on estrogen receptor α (ER-α) (Homo sapiens, UniProt P03372) for CC(C)c1cc2c(c(O)c1O)[C@@]13CCCC(C)(C)[C@@H]1C[C@@H]2OC3=O [carnosol]
Response: 4.29
